# growth per record follows
# Tested on: KM12 colon
# test_name: NCI-60 one-dose screen, 48 h (100 = growth as untreated, 0 = no growth, -100 = all killed)
# stated_conditions: 10 µM unless noted
This is part of a sample that, as a whole, favours compounds with a hit. Of some 83,000 tested, about 20% had one in any assay.
The figure you give is taken to be in %; do not add the unit.

Below, each entry is followed by its recorded growth result.
- compound: "Clc1ccc(N2N=C(c3cccc(Nc4ccncc4)c3)CC2c2ccccc2)cc1 (stereo not drawn)"
  target_entity: "KM12 colon"
  growth [%]: 90.4
- compound: "CN1CCCC1=Nc1ccccc1"
  target_entity: "KM12 colon"
  growth [%]: 114
- compound: "COc1ccc(/C=C/C(=O)c2ccc(Nc3ncnc4ccccc34)cc2)cc1OC"
  target_entity: "KM12 colon"
  growth [%]: 16.3
- compound: "COc1cc2nnn3c4ncccc4c(N=O)c3c2cc1OC"
  target_entity: "KM12 colon"
  growth [%]: 87
- compound: "COc1cccc(/C=C2\\COc3ccc(-c4ccccc4)cc3C2=O)c1"
  target_entity: "KM12 colon"
  growth [%]: -37.3
- compound: "CN1CCN(c2cnc(C(=O)Nc3cc(F)cc4cccnc34)cn2)CC1"
  target_entity: "KM12 colon"
  growth [%]: 95
- compound: "FC(F)(F)c1cccc(Nc2ccccc2)c1"
  target_entity: "KM12 colon"
  growth [%]: 102
- compound: "O=C1Nc2cc(-c3ccncc3)ccc2/C1=C/c1ccc[nH]1"
  target_entity: "KM12 colon"
  growth [%]: 33.1

Task: For O=C1Nc2c(ccc(Cl)c2Cl)/C1=C/c1ccc(O)cc1 , what is its reported growth?
Output: 85.9

Task: For CC(C)[N+](C)(CCOC(COc1ccccc1)COc1ccccc1)C(C)C , what is its reported growth?
Output: 83.5

Task: For O=S(=O)(NCCNc1nccc(-c2c(-c3cccc(F)c3)nc3occn23)n1)c1cccc2ccccc12 , what is its reported growth?
Output: 49.6

Task: For COc1ccc(-c2nc(N/N=C/c3cccc(Br)c3)nc(N3CCOCC3)c2C#N)cc1 , what is its reported growth?
Output: 44.2

Task: For COc1cc(OC)cc(C2C3=C(COC3=O)Nc3cc(OC)ccc32)c1 (stereo not drawn) , what is its reported growth?
Output: -3.49

Task: For CN1CCN(c2c(F)cc(NC3=C(Cl)C(=O)c4ncccc4C3=O)cc2F)CC1 , what is its reported growth?
Output: 105

Task: For OC1(c2ccc(Cl)c(C(F)(F)F)c2)CCN(CCCC(c2ccc(F)cc2)c2ccc(F)cc2)CC1 , what is its reported growth?
Output: -99.2

---

# System: EKVX NSCLC
# test_name: NCI-60 one-dose screen, 48 h (100 = growth as untreated, 0 = no growth, -100 = all killed)
# stated_conditions: 10 µM unless noted
Compounds without any hit were thinned out: in the full panel of roughly 83,000, 20% have a hit.
Doc: threshold 80% (exclusive). Items with growth beneath it return Yes; others return No.

Task: Say whether its growth is strictly beneath 80%. Entry: CC(=O)N1N=C(c2cccc(Nc3ccncc3)c2)CC1c1ccccc1 (stereo not given)
Output: No

Task: Say whether its growth is strictly beneath 80%. Entry: COc1ccc(Cc2nc3cc(OC)c(OC)cc3c(=O)[nH]2)cc1
Output: No

Task: Say whether its growth is strictly beneath 80%. Entry: CN(Cc1ccccc1)c1nc(Cl)c(C2CC(c3ccc(Cl)cc3)=Cc3[nH][nH]c(=O)c32)s1 (stereo not given)
Output: No

Task: Say whether its growth is strictly beneath 80%. Entry: COc1nccnn1
Output: No

Task: Say whether its growth is strictly beneath 80%. Entry: CC(O)/C=C/C=C/C(O)CC/C=C/C(=O)NCC(C)(C)O (stereo not given)
Output: No

Task: Say whether its growth is strictly beneath 80%. Entry: COc1ccc(C(=O)c2cc3c(N)c(C(=O)Nc4cccc(Cl)c4C)sc3nc2C)cc1
Output: Yes

Task: Say whether its growth is strictly beneath 80%. Entry: CCCCCCCC(=O)Nc1nc2[nH]c(CN3CCN(Cc4cccc(I)c4)CC3)c(CN3CCN(Cc4cccc(I)c4)CC3)c2c(=O)[nH]1
Output: Yes

Task: Say whether its growth is strictly beneath 80%. Entry: COC(=O)C1NC(=S)N(c2ccc(Cl)cc2)C1/C=C/c1ccccc1 (stereo not given)
Output: No

Task: Say whether its growth is strictly beneath 80%. Entry: Cc1ccc(/C=C/C(=O)c2ccc(N)cc2)c(C)c1
Output: No

Task: Say whether its growth is strictly beneath 80%. Entry: Cn1c(COC(=O)NCCn2ccnc2)nc2c(N3CCOCC3)nc(-c3ccccc3)nc21
Output: Yes

Task: Say whether its growth is strictly beneath 80%. Entry: COC(=O)C(c1ccccc1)C(CC(=O)c1ccccc1)c1ccccc1 (stereo not given)
Output: Yes

Task: Say whether its growth is strictly beneath 80%. Entry: O=C(Nc1nc2ccc(S(=O)(=O)Nc3ccc(C4(C(F)(F)F)CC4)cc3)cc2[nH]1)c1cnccn1
Output: Yes

Task: Say whether its growth is strictly beneath 80%. Entry: CCCCCCCCCCCCCCCC(=O)OC[C@@]1(O)C[C@@]23CC[C@@H]4C(C)(C)CCC[C@@]4(C)[C@@H]2CC[C@H]1C3
Output: No

Task: Say whether its growth is strictly beneath 80%. Entry: COc1ccc2c(Nc3ccc(NS(C)(=O)=O)cc3)c3ccccc3nc2c1
Output: Yes

Task: Say whether its growth is strictly beneath 80%. Entry: C#CC(=O)Nc1cccc(Nc2nc3c(c(NCc4ccccc4)n2)CCCC3)c1
Output: Yes

Task: Say whether its growth is strictly beneath 80%. Entry: O=C1Nc2cc(-c3ccncc3)ccc2/C1=C/c1ccc[nH]1
Output: Yes

Task: Say whether its growth is strictly beneath 80%. Entry: COc1ccncc1C#Cc1cncc(C(=O)Nc2ccc(CN3CCN(C)CC3)c(C(F)(F)F)c2)c1
Output: Yes

---

# Tested on: A549/ATCC NSCLC
# test_name: NCI-60 one-dose screen, 48 h
# stated_conditions: 10 µM unless noted
This is part of a sample that, as a whole, favours compounds with a hit. Of some 83,000 tested, about 20% had one in any assay. Activity calls are given as the source filed them. Rule for the calls: active = growth percent below 10; inactive = the rest.
Allowed answers: active, inactive

- molecule: "c1ccc(N2N=C(c3cccc(Nc4ccncc4)c3)CC2c2ccc3c(c2)OCO3)cc1 (centres undefined)"
  assigned_class: "inactive"
- molecule: "COc1ccccc1C(C[N+](=O)[O-])c1c(-c2ccccc2)[nH]c2cc(C)ccc12 (centres undefined)"
  assigned_class: "inactive"
- molecule: "Cn1c(COC(=O)NCCc2ccccn2)nc2c(N3CCOCC3)nc(Cl)nc21"
  assigned_class: "inactive"

Task: Write down the call the test reported for this molecule. Item: C=C1C(=O)O[C@H]2[C@H]1CC/C(COC(=O)CCCc1c[nH]c3ccccc13)=C\CC[C@@]1(C)O[C@@H]21
Output: inactive

Task: Write down the call the test reported for this molecule. Item: O=[N+]([O-])c1cccc(-c2nc(-c3ccc(Cl)cc3Cl)cn2-c2ccccc2)c1
Output: active

Task: Write down the call the test reported for this molecule. Item: COc1ccccc1-c1c(-c2ccc(Cl)cc2)c2cc3c(cc2[nH]c1=O)OCCO3
Output: inactive

Task: Write down the call the test reported for this molecule. Item: C=C1C(=O)O[C@H]2[C@H]1CC/C(COC(=O)NCCc1c[nH]c3ccc(Cl)cc13)=C\CC[C@@]1(C)O[C@@H]21
Output: inactive

Task: Write down the call the test reported for this molecule. Item: Nc1c(C(=O)Nc2cccc3ccncc23)sc2nc3c(cc12)C(=O)CCC3
Output: inactive

Task: Write down the call the test reported for this molecule. Item: Cc1ccc(C2C3CC4CCCCC4N3[C@@]3(C(=O)Nc4cc(Cl)ccc43)C2C(=O)c2nc3ccccc3[nH]2)cc1 (some centres undefined)
Output: inactive

---

# System: PC-3 prostate
# test_name: NCI-60 one-dose screen, 48 h (100 = growth as untreated, 0 = no growth, -100 = all killed)
# stated_conditions: 10 µM unless noted
About 83,000 compounds went through this panel and 20% of them were active in at least one assay; those are over-represented in the sample as a whole.
# growth per record follows
The figure you give is taken to be in %; do not add the unit.

Task: For O=S(=O)(O)c1cc(O)c2c(N=Nc3ccc(Nc4ccccc4)c4c(S(=O)(=O)O)cccc34)cc(S(=O)(=O)O)cc2c1 , what is its reported growth?
Output: 95

Task: For CC(=O)[C@@H]1CC[C@]2(C(=O)n3ccnc3)CC[C@]3(C)[C@H](CC[C@@H]4[C@@]5(C)Cc6c([nH]c7ccccc67)C(C)(C)[C@@H]5CC[C@]43C)[C@@H]12 , what is its reported growth?
Output: 63.7

Task: For COC(=O)Nc1nc2ccc(C(=O)c3cccc(I)c3)cc2[nH]1 , what is its reported growth?
Output: 20.9

Task: For O=C1NC(=O)C(=Cc2cn(Cc3ccccn3)c3ccccc23)C(=O)N1 , what is its reported growth?
Output: 94.2

Value source: PubChem BioAssay (NCI)
